Target: F508del (Homo sapiens, UniProt P13569, DEL508-508)
Construct: expressed in transfected cells
Sequence (P13569 with tags, fused parts or gaps DEL508-508): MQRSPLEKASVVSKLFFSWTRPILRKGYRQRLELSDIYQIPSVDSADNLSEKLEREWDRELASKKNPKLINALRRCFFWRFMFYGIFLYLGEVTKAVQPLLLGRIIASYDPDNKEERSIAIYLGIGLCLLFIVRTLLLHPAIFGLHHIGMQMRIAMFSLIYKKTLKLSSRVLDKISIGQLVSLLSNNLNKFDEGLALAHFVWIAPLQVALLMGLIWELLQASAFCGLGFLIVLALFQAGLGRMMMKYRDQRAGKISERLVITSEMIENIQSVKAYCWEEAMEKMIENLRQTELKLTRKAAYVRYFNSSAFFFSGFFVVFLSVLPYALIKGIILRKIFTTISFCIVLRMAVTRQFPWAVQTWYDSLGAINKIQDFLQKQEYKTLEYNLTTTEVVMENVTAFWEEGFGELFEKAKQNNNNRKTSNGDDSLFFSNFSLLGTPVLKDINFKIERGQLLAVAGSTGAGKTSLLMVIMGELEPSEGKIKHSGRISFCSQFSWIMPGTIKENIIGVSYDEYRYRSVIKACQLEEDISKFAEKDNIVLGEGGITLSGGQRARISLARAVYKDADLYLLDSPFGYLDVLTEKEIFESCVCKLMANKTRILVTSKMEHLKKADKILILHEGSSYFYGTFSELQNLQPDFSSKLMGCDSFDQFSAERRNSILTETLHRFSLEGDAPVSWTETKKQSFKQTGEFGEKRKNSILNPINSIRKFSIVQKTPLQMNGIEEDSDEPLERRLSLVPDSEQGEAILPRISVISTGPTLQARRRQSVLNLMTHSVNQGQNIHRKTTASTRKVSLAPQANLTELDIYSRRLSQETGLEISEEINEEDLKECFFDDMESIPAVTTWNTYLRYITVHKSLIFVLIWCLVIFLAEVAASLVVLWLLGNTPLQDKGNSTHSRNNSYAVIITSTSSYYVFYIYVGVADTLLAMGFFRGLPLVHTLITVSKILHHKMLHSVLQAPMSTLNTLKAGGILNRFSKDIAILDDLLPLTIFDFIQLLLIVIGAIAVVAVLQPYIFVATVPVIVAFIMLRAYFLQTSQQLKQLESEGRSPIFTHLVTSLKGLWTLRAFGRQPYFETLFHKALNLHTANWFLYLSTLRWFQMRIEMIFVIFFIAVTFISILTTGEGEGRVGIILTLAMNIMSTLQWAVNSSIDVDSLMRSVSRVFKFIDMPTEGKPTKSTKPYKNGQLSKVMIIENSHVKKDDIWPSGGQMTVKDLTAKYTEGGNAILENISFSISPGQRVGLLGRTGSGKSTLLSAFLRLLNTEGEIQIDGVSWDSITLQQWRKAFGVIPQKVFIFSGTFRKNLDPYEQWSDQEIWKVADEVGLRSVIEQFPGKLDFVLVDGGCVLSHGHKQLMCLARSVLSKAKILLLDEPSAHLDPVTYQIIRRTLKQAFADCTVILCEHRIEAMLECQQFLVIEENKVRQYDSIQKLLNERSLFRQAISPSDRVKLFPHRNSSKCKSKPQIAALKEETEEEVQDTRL
Experiment: Protocol 1: membrane potential optical assay (FLIPR III, voltage sensing dye), identification of potentiator compounds
Format: cell-based
Conditions: Table 3, compounds of Table 1

[
  {
    "molecule": "CC(C)COc1cc(F)cc(-c2ccc(C(=O)NS(=O)(=O)c3cccc(N)n3)c(N3CCCC3c3ccccc3)n2)c1 (stereo not shown)",
    "EC30": "+++ (“+++” means <3 uM)"
  },
  {
    "molecule": "CC(C)Oc1ccn(-c2ccc(C(=O)NS(=O)(=O)c3cccc(N)n3)c(N3C[C@@H](C)CC3(C)C)n2)n1",
    "EC30": "+++ (“+++” means <3 uM)"
  },
  {
    "molecule": "Cc1ccc(C)c(-c2ccc(C(=O)NS(=O)(=O)c3ccc[nH]c3=O)c(N3C[C@@H](C)CC3(C)C)n2)c1",
    "EC30": "+++ (“+++” means <3 uM)"
  }
]
